# Tested on: Mycolicibacterium phlei
# protocol description: Antimicrobial activity against Mycobacterium phlei after 5 days by microplate Alamar Blue assay
# Assay type: functional
# recorded conditions: 120 h
Output 1 (yes) for records whose MIC is lower than 20 µg/mL, 0 (no) for records at or above 20 µg/mL.

Past entries and their recorded results:
item smiles	discrete label
Cc1ccc2oc(=O)cc(COc3ccccc3I)c2c1	0 (no)
O=c1cc(COc2cccc(I)c2)c2cc(Br)ccc2o1	1 (yes)
Cc1ccc2c(COc3ccccc3I)cc(=O)oc2c1	0 (no)
O=c1cc(COc2ccc(I)cc2)c2ccc3ccccc3c2o1	0 (no)
Cc1ccc2c(COc3ccc(I)cc3)cc(=O)oc2c1	1 (yes)

Turning now to a further record.
Exercise: Is MIC strictly under 20 µg/mL for the entry O=c1cc(COc2ccccc2I)c2cc(Cl)ccc2o1 ?
Key: 0 (no)

* * *

# protocol description: Cytotoxicity against human MDA-MB cells after 24 hrs by MTT assay
# Assay type: functional
For each record, write down the corresponding MIC.
Answers are plain numbers, in µg/mL.

In the examples that follow, each entry is paired with its recorded MIC.
item smiles	MIC, µg/mL
Cc1ccc2oc(=O)cc(COc3cccc(I)c3)c2c1	25
O=c1cc(COc2cccc(I)c2)c2cc(Cl)ccc2o1	6.25

For every item below, please supply its MIC.
1. COc1ccc2c(COc3ccccc3I)cc(=O)oc2c1
2. Cc1ccc2c(COc3cccc(I)c3)cc(=O)oc2c1
3. COc1ccc2oc(=O)cc(COc3ccc(I)cc3)c2c1
4. Cc1ccc2c(COc3ccc(I)cc3)cc(=O)oc2c1C

Key:
25
25
25
12.5

Each compound below has a reported value. Please supply its MIC.
1. COc1ccc2oc(=O)cc(COc3cccc(I)c3)c2c1
2. Cc1ccc2oc(=O)cc(COc3ccccc3I)c2c1
3. Cc1ccc2c(COc3ccc(I)cc3)cc(=O)oc2c1
4. Cc1ccc2oc(=O)cc(COc3ccc(I)cc3)c2c1
5. O=c1cc(COc2cccc(I)c2)c2ccc3ccccc3c2o1
6. O=c1cc(COc2ccc(I)cc2)c2cc(Cl)ccc2o1

Key:
50
12.5
12.5
12.5
50
1.56

* * *

Kindly supply the reported log10(MIC) values for the records listed here.
# Test system: Mycolicibacterium phlei
# protocol description: Antimicrobial activity against Mycobacterium phlei after 5 days by microplate Alamar Blue assay
# Type: functional
# recorded conditions: 120 h
Reminder: these figures are log10 of reported MIC, in µg/mL before transformation.

compound	log10(MIC)
COc1ccc2oc(=O)cc(COc3cccc(I)c3)c2c1	1.70
Cc1ccc2c(COc3ccccc3I)cc(=O)oc2c1C	1.70
O=c1cc(COc2ccccc2I)c2c(ccc3ccccc32)o1	1.70
NC(=O)c1cnccn1 [PYRAZINAMIDE]	0.49

Batch request: log10(MIC) for each of the following compounds.
1. Cc1ccc2c(COc3cccc(I)c3)cc(=O)oc2c1
2. COc1ccc2oc(=O)cc(COc3ccccc3I)c2c1
3. O=c1cc(COc2ccccc2I)c2cc(Br)ccc2o1
4. O=c1cc(COc2cccc(I)c2)c2ccc3ccccc3c2o1
5. O=c1cc(COc2cccc(I)c2)c2ccc(Cl)cc2o1
6. O=c1cc(COc2ccccc2I)c2ccc3ccccc3c2o1

Key:
1: 1.10; 2: 1.70; 3: 1.70; 4: 1.40; 5: 0.80; 6: 1.70

// input: 7 compounds below; output: log10(MIC) for each
1. COc1ccc2oc(=O)cc(COc3ccc(I)cc3)c2c1
2. Cc1ccc2c(COc3cccc(I)c3)cc(=O)oc2c1C
3. CN[C@@H]1[C@H](O[C@H]2[C@H](O[C@H]3[C@H](O)[C@@H](O)[C@H](N=C(N)N)[C@@H](O)[C@@H]3N=C(N)N)O[C@@H](C)[C@]2(O)C=O)O[C@@H](CO)[C@H](O)[C@H]1O
4. O=c1cc(COc2ccccc2I)c2ccc(Cl)cc2o1
5. O=c1cc(COc2ccc(I)cc2)c2c(ccc3ccccc32)o1
6. O=c1cc(COc2ccc(I)cc2)c2cc(Br)ccc2o1
7. Cc1ccc2oc(=O)cc(COc3cccc(I)c3)c2c1

Key:
1. 1.10
2. 1.40
3. 0.80
4. 1.40
5. 1.40
6. 0.80
7. 1.10

Quick one: give me log10(MIC) for each item below, same order please.
1. Cc1ccc2c(COc3ccc(I)cc3)cc(=O)oc2c1C
2. O=c1cc(COc2ccc(I)cc2)c2ccc(Cl)cc2o1
3. O=c1cc(COc2cccc(I)c2)c2cc(Cl)ccc2o1

Key:
1: 1.10; 2: 0.49; 3: 0.80

* * *

# protocol description: Cytotoxicity against human MDA-MB cells after 24 hrs by MTT assay
# Assay type: functional
Could you please report measured MIC for the items listed next?
Put down the number, then write its unit next to it.

For orientation, consider the following solved cases.
item smiles	MIC
Cc1ccc2c(COc3ccccc3I)cc(=O)oc2c1C	25 µg/mL
O=c1cc(COc2cccc(I)c2)c2ccc(Cl)cc2o1	6.25 µg/mL
O=c1cc(COc2ccccc2I)c2ccc(Cl)cc2o1	12.5 µg/mL
COc1ccc2c(COc3ccc(I)cc3)cc(=O)oc2c1	25 µg/mL
O=c1cc(COc2cccc(I)c2)c2c(ccc3ccccc32)o1	50 µg/mL
O=c1cc(COc2ccccc2I)c2ccc3ccccc3c2o1	25 µg/mL

Look at each compound and report its MIC.
1. COc1ccc2c(COc3cccc(I)c3)cc(=O)oc2c1
2. O=c1cc(COc2ccc(I)cc2)c2c(ccc3ccccc32)o1
3. COc1ccc2oc(=O)cc(COc3ccccc3I)c2c1
4. O=c1cc(COc2ccccc2I)c2cc(Br)ccc2o1

Key:
["50 µg/mL", "25 µg/mL", "25 µg/mL", "12.5 µg/mL"]

Quick batch: MIC for everything below.
1. O=c1cc(COc2cccc(I)c2)c2cc(Br)ccc2o1
2. O=c1cc(COc2ccccc2I)c2cc(Cl)ccc2o1
3. O=c1cc(COc2ccc(I)cc2)c2cc(Br)ccc2o1
4. O=c1cc(COc2ccccc2I)c2c(ccc3ccccc32)o1

Key:
["6.25 µg/mL", "12.5 µg/mL", "3.12 µg/mL", "25 µg/mL"]

Here are 4 compounds. What values of MIC were reported for them?
1. Cc1ccc2c(COc3cccc(I)c3)cc(=O)oc2c1C
2. O=c1cc(COc2ccc(I)cc2)c2ccc3ccccc3c2o1
3. Cc1ccc2c(COc3ccccc3I)cc(=O)oc2c1
4. O=c1cc(COc2ccc(I)cc2)c2ccc(Cl)cc2o1

Key:
1. 25 µg/mL
2. 25 µg/mL
3. 12.5 µg/mL
4. 1.56 µg/mL

* * *

# Tested on: Mycolicibacterium phlei
# protocol description: Antimicrobial activity against Mycobacterium phlei after 5 days by microplate Alamar Blue assay
# Assay type: functional
# recorded conditions: 120 h
Could you please report measured MIC for the items listed next?
Give bare numbers, in µg/mL.

Recorded MIC, per entry:
item smiles	unit annotation	MIC
COc1ccc2c(COc3ccccc3I)cc(=O)oc2c1	µg/mL	50
Cc1ccc2oc(=O)cc(COc3ccc(I)cc3)c2c1	µg/mL	12.5
O=c1cc(COc2ccc(I)cc2)c2cc(Cl)ccc2o1	µg/mL	3.12
COc1ccc2c(COc3ccc(I)cc3)cc(=O)oc2c1	µg/mL	12.5

For each listed entry, give its MIC.
1. COc1ccc2c(COc3cccc(I)c3)cc(=O)oc2c1
2. O=c1cc(COc2cccc(I)c2)c2c(ccc3ccccc32)o1

Key:
[50, 25]
